Please respond with reported pIC50 for every item in the list.
- target.system: P-selectin (Homo sapiens)
- Construct: consists of the human lectin domain, the EGF domain, and two complement repeats of the human selectins; made in house
- assay.name: P-Selectin Adhesion Receptor Binding: cell-free ELISA, inhibition of P-selectin binding to immobilized sulfatides
- condition.info: immobilized sulfatide, pH 8.0
Give bare numbers, as −log10 of the molar value.

# pIC50 of `CCCCCCCC/C=C\CCCCCCCCCCCCCC(=O)N[C@@H](CO[C@@H]1O[C@H](COS(=O)(=O)O)[C@H](OC(=O)c2ccccc2)[C@H](OC(=O)c2ccccc2)[C@H]1OS(=O)(=O)O)[C@@H](/C=C/CCCCCCCCCCCCC)OC(=O)c1ccccc1` = 6.00

pIC50 recorded for this compound, `CCCCCCCCCCCCC/C=C/[C@@H](OC(=O)c1ccccc1)[C@H](CO[C@@H]1O[C@H](COS(=O)(=O)O)[C@H](OS(=O)(=O)O)[C@H](OC(=O)c2ccccc2)[C@H]1OC(=O)c1ccccc1)NC(=O)CCCCCCCCCCCCCCC` , is 7.00

Form: compound = `CCCCCCCCCCCCC/C=C/[C@@H](OC(=O)c1ccccc1)[C@H](CO[C@@H]1O[C@H](COS(=O)(=O)O)[C@H](OC(C)=O)[C@H](OS(=O)(=O)O)[C@H]1OC(=O)c1ccccc1)NC(=O)CCCCCCCCCCCCCCC` ; pIC50 = 5.89

Others:
Value of measured pIC50 for the entry `CCCCCCCCCCCCC/C=C/[C@@H](OC(=O)c1ccccc1)[C@H](CO[C@@H]1O[C@H](COS(=O)(=O)O)[C@@H](OS(=O)(=O)O)[C@H](OC(=O)c2ccccc2)[C@H]1OC(=O)c1ccccc1)NC(=O)CCCCCCCCCCCCCCC` : 6.70

====

- target.system: P-selectin (Homo sapiens, UniProt P16109)
- Construct: consists of the human lectin domain, the EGF domain, and two complement repeats of the human selectins; made in house
- Sequence (P16109 with tags, fused parts or gaps limits assumed): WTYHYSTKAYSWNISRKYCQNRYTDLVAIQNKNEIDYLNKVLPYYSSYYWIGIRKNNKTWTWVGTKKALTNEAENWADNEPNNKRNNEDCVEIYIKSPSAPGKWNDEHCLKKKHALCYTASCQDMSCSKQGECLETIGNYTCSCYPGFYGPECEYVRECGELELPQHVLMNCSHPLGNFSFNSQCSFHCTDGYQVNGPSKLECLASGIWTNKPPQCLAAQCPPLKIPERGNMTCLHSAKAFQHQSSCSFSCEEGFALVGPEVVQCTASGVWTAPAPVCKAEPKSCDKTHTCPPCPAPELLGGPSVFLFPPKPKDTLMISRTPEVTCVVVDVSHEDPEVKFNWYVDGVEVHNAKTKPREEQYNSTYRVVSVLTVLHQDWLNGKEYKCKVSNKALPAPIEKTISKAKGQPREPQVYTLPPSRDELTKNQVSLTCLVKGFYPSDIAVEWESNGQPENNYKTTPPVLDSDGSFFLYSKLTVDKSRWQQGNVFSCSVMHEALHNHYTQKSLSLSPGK
- assay.name: P-Selectin Adhesion Receptor Binding: cell-free ELISA, inhibition of P-selectin binding to immobilized sulfatides
- condition.info: immobilized sulfatide, pH 8.0
measurement.name: IC50 (nM)
One number for each entry, in nM.

Reported P-selectin (Homo sapiens, UniProt P16109) IC50 for item CCCCCC/C=C/[C@@H](OC(=O)c1ccccc1)[C@H](CO[C@@H]1O[C@H](COS(=O)(=O)O)[C@H](O)[C@H](O)[C@H]1OS(=O)(=O)O)NC(=O)CCCCCCCCCCCCCCC [Example 25] was 2700

Now, please, on to the next compound.
Entry CCCCCCCCCCCCC/C=C/[C@@H](O)[C@H](CO[C@@H]1O[C@H](COS(=O)(=O)O)[C@H](OS(=O)(=O)O)[C@H](O)[C@H]1O)NC(=O)CCCCCCCCCCCCCCC [Example 2] ; assay system P-selectin (Homo sapiens, UniProt P16109); IC50 recorded at 1700

====

- target.system: P-selectin (Homo sapiens)
- Construct: consists of the human lectin domain, the EGF domain, and two complement repeats of the human selectins; made in house
- assay.name: HL-60 Cell Binding to P-selectin Rg
- Format: cell-based
- condition.info: HL-60 cells binding to P-selectin Rg coated wells
measurement.name: pIC50
Numbers only, as −log10 of the molar value.

Lab book: pIC50 of `CCCCCCCCCCCCCCCCCCCCCCCC(=O)N[C@@H](CO[C@@H]1O[C@H](COS(=O)(=O)O)[C@H](OS(=O)(=O)O)[C@H](OC(=O)c2ccccc2)[C@H]1OC(=O)c1ccccc1)[C@@H](CCCCCCCCCCCCCCC)OC(=O)c1ccccc1` noted as 4.35

Give one value of pIC50 per listed molecule.
1. CCCCCCCCCCCCC/C=C/[C@@H](OC(=O)c1ccccc1)[C@H](CO[C@@H]1O[C@H](COS(=O)(=O)O)[C@H](OC(C)=O)[C@H](OS(=O)(=O)O)[C@H]1OC(=O)c1ccccc1)NC(=O)CCCCCCCCCCCCCCC
2. CCCCCCCC/C=C\CCCCCCCCCCCCCC(=O)N[C@@H](CO[C@@H]1O[C@H](COS(=O)(=O)O)[C@H](OC(=O)c2ccccc2)[C@H](OC(=O)c2ccccc2)[C@H]1OS(=O)(=O)O)[C@@H](/C=C/CCCCCCCCCCCCC)OC(=O)c1ccccc1
3. CCCCCCCCCCCCC/C=C/[C@@H](O)[C@H](CO[C@@H]1O[C@H](COS(=O)(=O)O)[C@H](OS(=O)(=O)O)[C@H](O)[C@H]1O)NC(=O)CCCCCCCCCCCCCCC

[4.82, 4.96, 4.41]

Sourced from patent US5565433A
